- TARGET_UNDER_TEST: GR (Homo sapiens)
- Sequence (P04150 whole entry): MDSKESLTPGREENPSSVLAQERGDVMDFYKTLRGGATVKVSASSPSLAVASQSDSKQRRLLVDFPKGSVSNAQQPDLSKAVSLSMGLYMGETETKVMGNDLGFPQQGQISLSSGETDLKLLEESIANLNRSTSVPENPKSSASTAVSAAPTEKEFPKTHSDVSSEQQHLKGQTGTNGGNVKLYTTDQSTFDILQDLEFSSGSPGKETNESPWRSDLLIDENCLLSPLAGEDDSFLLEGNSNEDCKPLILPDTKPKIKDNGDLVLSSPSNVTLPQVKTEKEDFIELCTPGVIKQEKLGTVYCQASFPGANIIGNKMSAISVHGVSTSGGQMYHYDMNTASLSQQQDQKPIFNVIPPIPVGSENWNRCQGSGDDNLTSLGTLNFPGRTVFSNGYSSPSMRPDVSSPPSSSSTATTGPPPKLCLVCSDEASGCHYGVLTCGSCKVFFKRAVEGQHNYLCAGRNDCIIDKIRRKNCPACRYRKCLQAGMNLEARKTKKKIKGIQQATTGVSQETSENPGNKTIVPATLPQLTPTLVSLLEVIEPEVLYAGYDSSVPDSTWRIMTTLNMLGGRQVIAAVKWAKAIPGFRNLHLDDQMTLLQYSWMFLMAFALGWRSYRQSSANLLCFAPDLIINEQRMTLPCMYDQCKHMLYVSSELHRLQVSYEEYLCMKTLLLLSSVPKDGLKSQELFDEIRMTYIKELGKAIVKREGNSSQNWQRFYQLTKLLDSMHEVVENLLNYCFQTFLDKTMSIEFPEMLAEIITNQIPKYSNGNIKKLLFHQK
- PROCEDURE_DETAILS: GR reporter gene assay in HEK293
- STATED_CONDITIONS: reporter gene assay, HEK293; agonist dexamethasone 1 nM; read-out: GR antagonistic activity (IC50)
ENDPOINT_LABEL: IC50

Examples from the recorded data:
{"columns": ["MOLECULE", "IC50"],
 "data": [
  ["CCCCn1c(=O)c2cc(OC)ccc2c2cc(C(O)(C(F)(F)F)C(F)(F)F)c(OC)cc21", "1.7 µM"],
  ["O=c1[nH]c2c(Cl)cc(C(O)(C(F)(F)F)C(F)(F)F)cc2c2ccccc12", "> 20 µM"],
  ["COc1cc(C(O)(C(F)(F)F)C(F)(F)F)cc2c1[nH]c(=O)c1ccccc12", "> 20 µM"]
]}

(Q) Dear colleague, I am looking for the recorded IC50 of the following molecule: `CCCCn1c(=O)c2c(OC)cccc2c2cc(C(O)(C(F)(F)F)C(F)(F)F)ccc21`
(A) 14 µM

(Q) Dear colleague, I am looking for the recorded IC50 of the following molecule: `CCCCn1c(=O)c2ccccc2c2cc(C(C)(C)C)ccc21`
(A) > 20 µM

(Q) Dear colleague, I am looking for the recorded IC50 of the following molecule: `CCCCn1c(=O)c2ccccc2c2cc(C)ccc21`
(A) > 20 µM

(Q) Dear colleague, I am looking for the recorded IC50 of the following molecule: `CCCCn1c(=O)c2ccc(C)cc2c2cc(C(O)(C(F)(F)F)C(F)(F)F)ccc21`
(A) 16 µM

(Q) Dear colleague, I am looking for the recorded IC50 of the following molecule: `CCCCn1c(=O)c2ccccc2c2c(OC)c(C(O)(C(F)(F)F)C(F)(F)F)ccc21`
(A) > 20 µM

(Q) Dear colleague, I am looking for the recorded IC50 of the following molecule: `CCCCn1c(=O)c2ccc(O)cc2c2cc(C(O)(C(F)(F)F)C(F)(F)F)ccc21`
(A) > 20 µM

(Q) Dear colleague, I am looking for the recorded IC50 of the following molecule: `CCCc1cc(C(O)(C(F)(F)F)C(F)(F)F)cc2c1[nH]c(=O)c1ccccc12`
(A) 16 µM

(Q) Dear colleague, I am looking for the recorded IC50 of the following molecule: `CCCCn1c(=O)c2ccccc2c2cc(C(O)(C(F)(F)F)C(F)(F)F)c(OC)c(OC)c21`
(A) > 20 µM

(Q) Dear colleague, I am looking for the recorded IC50 of the following molecule: `CCCCn1c(=O)c2ccc(Cl)cc2c2cc(C(O)(C(F)(F)F)C(F)(F)F)ccc21`
(A) 10 µM

(Q) Dear colleague, I am looking for the recorded IC50 of the following molecule: `CCCCn1c(=O)c2cc(OC)ccc2c2cc(C(O)(C(F)(F)F)C(F)(F)F)cc(OC)c21`
(A) 5.2 µM

(Q) Dear colleague, I am looking for the recorded IC50 of the following molecule: `CCCCn1c(=O)c2ccccc2c2cc(C(O)(C(F)(F)F)C(F)(F)F)cc(OC)c21`
(A) 3.9 µM

(Q) Dear colleague, I am looking for the recorded IC50 of the following molecule: `CCCCCCn1c(=O)c2ccccc2c2cc(C(O)(C(F)(F)F)C(F)(F)F)ccc21`
(A) > 20 µM

(Q) Dear colleague, I am looking for the recorded IC50 of the following molecule: `CCCCn1c(=O)c2cc(OC)c(OC)cc2c2cc(C(O)(C(F)(F)F)C(F)(F)F)ccc21`
(A) 17 µM

(Q) Dear colleague, I am looking for the recorded IC50 of the following molecule: `CCCn1c(=O)c2ccccc2c2cc(C(O)(C(F)(F)F)C(F)(F)F)ccc21`
(A) 17 µM

* * *

- TARGET_UNDER_TEST: LXRβ (Homo sapiens)
- Construct: CMX-GAL4N-hLXRβ-LBD; expressed in transfected cells; host or cells: HEK293
- Sequence (P55055 222-460 limits assumed): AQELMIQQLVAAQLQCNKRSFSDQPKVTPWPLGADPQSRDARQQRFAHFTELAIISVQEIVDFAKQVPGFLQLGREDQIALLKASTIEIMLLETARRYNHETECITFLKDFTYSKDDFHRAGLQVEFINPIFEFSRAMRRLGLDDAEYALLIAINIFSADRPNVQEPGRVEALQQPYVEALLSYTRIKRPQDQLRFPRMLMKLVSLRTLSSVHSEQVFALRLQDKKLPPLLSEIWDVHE
- PROCEDURE_DETAILS: LXRβ reporter gene assay in HEK293
- Type: cell-based
- STATED_CONDITIONS: read-out: LXRβ antagonistic activity (IC50)
ENDPOINT_LABEL: IC50 (µM)
Could you give me the number in µM? Just the number is fine.

Examples from the recorded data:
{"columns": ["MOLECULE", "UNIT_ABBREVIATION", "IC50"],
 "data": [
  ["CCCCn1c(=O)c2cc(OC)ccc2c2cc(C(O)(C(F)(F)F)C(F)(F)F)ccc21", "µM", 11],
  ["O=c1[nH]c2ccc(C(O)(C(F)(F)F)C(F)(F)F)cc2c2ccc(F)cc12", "µM", 6],
  ["CCCCn1c(=O)c2ccc(Cl)cc2c2cc(C(O)(C(F)(F)F)C(F)(F)F)ccc21", "µM", 0.88]
]}

(Q) Dear colleague, I am looking for the recorded IC50 of the following compound: `CCCCn1c(=O)c2cc(OC)c(OC)cc2c2cc(C(O)(C(F)(F)F)C(F)(F)F)ccc21`
(A) 8.9

(Q) Dear colleague, I am looking for the recorded IC50 of the following compound: `O=c1[nH]c2c(F)cc(C(O)(C(F)(F)F)C(F)(F)F)cc2c2ccccc12`
(A) 4.6

* * *

- TARGET_UNDER_TEST: LXRα (Homo sapiens, UniProt Q13133)
- Construct: CMX-GAL4N-hLXRα-LBD; expressed in transfected cells; host or cells: HEK293
- Sequence (Q13133 209-447 limits assumed): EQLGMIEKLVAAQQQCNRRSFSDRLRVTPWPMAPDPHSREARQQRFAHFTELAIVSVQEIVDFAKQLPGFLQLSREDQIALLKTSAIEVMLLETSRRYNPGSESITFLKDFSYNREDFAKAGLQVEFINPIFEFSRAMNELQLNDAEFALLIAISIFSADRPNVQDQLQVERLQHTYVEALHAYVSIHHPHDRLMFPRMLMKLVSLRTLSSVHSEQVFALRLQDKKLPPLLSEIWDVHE
- PROCEDURE_DETAILS: LXRα reporter gene assay in HEK293
- Assay type: cell-based
- STATED_CONDITIONS: read-out: LXRα antagonistic activity (IC50)
Item-by-item account of pIC50
Remember, pIC50 is on a log scale: it is -log10 of the molar concentration.

Examples from the recorded data:
{"columns": ["COMPOUND", "pIC50"],
 "data": [
  ["CCCCn1c(=O)c2ccc(Cl)cc2c2cc(C(O)(C(F)(F)F)C(F)(F)F)ccc21 [Compound 2]", 5.04],
  ["CCCCn1c(=O)c2cc(OC)c(OC)cc2c2cc(C(O)(C(F)(F)F)C(F)(F)F)ccc21 [Compound 31]", 5.06],
  ["CCCCn1c(=O)c2c(OC)c(OC)ccc2c2cc(C(O)(C(F)(F)F)C(F)(F)F)ccc21 [Compound 29]", 5.49]
]}

(Q) I'm curious: which pIC50 was measured for CCCCn1c(=O)c2ccccc2c2cc(C)ccc21 [Compound 8] tested on LXRα (Homo sapiens, UniProt Q13133)?
(A) 4.77

(Q) I'm curious: which pIC50 was measured for CCCn1c(=O)c2ccccc2c2cc(C(O)(C(F)(F)F)C(F)(F)F)ccc21 [Compound 15] tested on LXRα (Homo sapiens, UniProt Q13133)?
(A) 4.92

(Q) I'm curious: which pIC50 was measured for CCCCCCn1c(=O)c2ccccc2c2cc(C(O)(C(F)(F)F)C(F)(F)F)ccc21 [Compound 16] tested on LXRα (Homo sapiens, UniProt Q13133)?
(A) 4.80

(Q) I'm curious: which pIC50 was measured for O=c1[nH]c2c(F)cc(C(O)(C(F)(F)F)C(F)(F)F)cc2c2ccccc12 [Compound 32] tested on LXRα (Homo sapiens, UniProt Q13133)?
(A) 5.51

(Q) I'm curious: which pIC50 was measured for CCCCn1c(=O)c2cc(OC)ccc2c2cc(C(O)(C(F)(F)F)C(F)(F)F)c(OC)cc21 [Compound 27] tested on LXRα (Homo sapiens, UniProt Q13133)?
(A) 4.77

(Q) I'm curious: which pIC50 was measured for CCn1c(=O)c2ccccc2c2cc(C(O)(C(F)(F)F)C(F)(F)F)ccc21 [Compound 14] tested on LXRα (Homo sapiens, UniProt Q13133)?
(A) 4.85

(Q) I'm curious: which pIC50 was measured for O=c1[nH]c2ccc(C(O)(C(F)(F)F)C(F)(F)F)cc2c2cccc(F)c12 [Compound 33] tested on LXRα (Homo sapiens, UniProt Q13133)?
(A) 5.51

(Q) I'm curious: which pIC50 was measured for CCCCn1c(=O)c2ccccc2c2ccccc21 [Compound 7] tested on LXRα (Homo sapiens, UniProt Q13133)?
(A) 4.72

(Q) I'm curious: which pIC50 was measured for CCCCn1c(=O)c2ccccc2c2cc(C(O)(C(F)(F)F)C(F)(F)F)ccc21 [Compound 12] tested on LXRα (Homo sapiens, UniProt Q13133)?
(A) 5.08

(Q) I'm curious: which pIC50 was measured for CCCCn1c(=O)c2ccccc2c2cc(CC)ccc21 [Compound 9] tested on LXRα (Homo sapiens, UniProt Q13133)?
(A) 4.77
